Test system: GR-ST (B-Lymphoblastic Leukemia);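 note: after 72 h of two-drug dosing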
Method Description: Bliss excess, mean over the matrix (fraction); higher = more synergy
Recorded Metric: Bliss excess
// print number alone

Reported Bliss excess ( COc1cccc(OCCCN)c1-c1cc(Nc2cnc(C#N)cn2)n[nH]1 [Prexasertib] + Cc1cc2ncnn2cc1Nc1ncc2c(n1)n(C1CCOCC1)c(=O)n2C [AZD7648] (first compound max 1 µM, 7x7, partner max 10 µM) ) = -0.0363

The reported Bliss excess of the compound Cc1cc2ncnn2cc1Nc1ncc2c(n1)n(C1CCOCC1)c(=O)n2C [AZD7648] + C=CCn1c(=O)c2cnc(Nc3ccc(N4CCN(C)CC4)cc3)nc2n1-c1cccc(C(C)(C)O)n1 [AZD1775] (first compound max 10 µM, partner max 1 µM) was -0.117
